# Test system: ATP;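 note: ATP exposure 15 min at 22 °C before imaging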
# protocol.description: switch fluorescence ratio, 500 uM ATP over buffer (Cy3 cluster intensity, sum of 5 cycles each) (fold (ratio)); higher = stronger signal-on switching upon ATP binding; sequences stand for … in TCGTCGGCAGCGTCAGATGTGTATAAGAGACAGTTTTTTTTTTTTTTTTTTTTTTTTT…TC
# recorded.conditions: aptamer strand: ATP DNA aptamer (quencher-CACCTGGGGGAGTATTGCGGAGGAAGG + anchor), 100 nM annealed; ATP concentration: 500 uM
readout.type: switch fluorescence ratio
Answers are plain numbers.

In the examples that follow, each entry is paired with its recorded switch fluorescence ratio.
INSERT INTO measurements (query_sequence, study_system, value_measured) VALUES
  ('GGTAAGATCG', 'ATP', 0.978),
  ('GGGGGTGGGA', 'ATP', 1),
  ('ATAGACAGCA', 'ATP', 1.01),
  ('GCGTTGTCTG', 'ATP', 0.982),
  ('GGGATAGGGT', 'ATP', 1),
  ('ATGGGGGACT', 'ATP', 1.02),
  ('CCGATTTATA', 'ATP', 1.01),
  ('GCTTCTGGGG', 'ATP', 1.03);

Please give switch fluorescence ratio, item by item, for the list that follows.
1. GGAAAAAAGT
2. GGGTATGCGG
3. GCGTTTAATG
4. GTTTTAATTT
5. GTGTGGAAGA

[1.02, 0.978, 0.977, 0.988, 1.02]

Take each entry in turn and give its switch fluorescence ratio.
1. CAGGGACGGC
2. AAAAAGTCAT
3. AATGTCGACG
4. CGGGAAGGTA

[1.02, 0.967, 0.994, 0.981]

* * *

# System: ATP;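 note: ATP exposure 15 min at 22 °C before imaging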
# protocol.description: switch fluorescence ratio, 500 uM ATP over buffer (Cy3 cluster intensity, sum of 5 cycles each) (fold (ratio)); higher = stronger signal-on switching upon ATP binding; sequences stand for … in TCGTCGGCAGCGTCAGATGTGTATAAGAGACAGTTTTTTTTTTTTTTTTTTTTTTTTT…TC
# recorded.conditions: aptamer strand: ATP DNA aptamer (quencher-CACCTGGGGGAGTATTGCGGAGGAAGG + anchor), 100 nM annealed; ATP concentration: 500 uM
readout.type: switch fluorescence ratio
Give bare numbers.

INSERT INTO measurements (query_sequence, study_system, value_measured) VALUES
  ('CAGTGTCTGA', 'ATP', 1.05),
  ('TTTAGGCAAA', 'ATP', 1.05),
  ('CGGGTCTTGC', 'ATP', 0.981),
  ('GACTACGTTT', 'ATP', 1.02),
  ('ATGGTTTTAA', 'ATP', 1.03);

List the reported switch fluorescence ratio of each sequence below.
1. GGTACTAGGC
2. TGGCATCTGT
3. CCCATTTTGT
4. AATTGCGTCA
5. ATTTAAATAG
6. CGAGTATCTA
7. CAATTCCGTG

[1.04, 0.972, 0.991, 0.961, 0.993, 0.993, 1.02]

* * *

# Test system: ATP;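 note: ATP exposure 15 min at 22 °C before imaging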
# protocol.description: switch fluorescence ratio, 500 uM ATP over buffer (Cy3 cluster intensity, sum of 5 cycles each) (fold (ratio)); higher = stronger signal-on switching upon ATP binding; sequences stand for … in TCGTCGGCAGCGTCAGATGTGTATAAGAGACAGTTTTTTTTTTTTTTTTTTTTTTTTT…TC
# recorded.conditions: aptamer strand: ATP DNA aptamer (quencher-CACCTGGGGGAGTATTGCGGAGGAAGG + anchor), 100 nM annealed; ATP concentration: 500 uM
readout.type: switch fluorescence ratio
Give bare numbers.

Consider the following illustrative entries.
INSERT INTO assay_data (query_sequence, value_measured) VALUES
  ('GGGGAAATGG', 1.01),
  ('CTAAGGTTGG', 0.974),
  ('GTTGGCCCGG', 0.997),
  ('ATGTATAGCA', 1),
  ('AACTCATTCA', 1.02),
  ('GACGTATTTT', 0.999),
  ('TTTGACTTCA', 1.03),
  ('TCCTTCAAAG', 1.08);

Kindly give each listed record's switch fluorescence ratio.
1. CCATTTTGCA
2. GGCTTTTTTA
3. ATAGTGAAGT
4. GTGGTATCAC
5. ATGCTACCGT

1.04
1.05
0.982
1
1.03

Dear colleague, could you please provide switch fluorescence ratio for the sequences listed below?
1. TTAGTATATA
2. CGGTTGAGTT
3. TAATTTTGTG
4. AGTTCGGTGC
5. CCGGAAATTT

1. 0.995
2. 1.02
3. 0.975
4. 0.98
5. 1.01

Can you give me switch fluorescence ratio for all of these, one by one?
1. TTGATTATTA
2. TCGGTTGAGA

1. 1.02
2. 1.01
